experiment: DUX4 transcriptional activity inhibition in cells – 293T cells, Gaussia and Italica luciferase, primary screen (AID 1224904); settings: 293T-iDUX4 ZSCAN4-Gaussia luciferase reporter, 24 h; stronger effect = lower value; concentration not given here;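 on activity change, negative = inhibition: 0% = median of neutral control wells and -100% = median of positive control wells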
The whole screen tested about 37,000 compounds, of which about 290 (0.78%) were called active. Inconclusive results (about 10%) are left out. The full list was thinned out, with actives kept by preference.
Catalogue of activity change, negative = inhibition values

{"MOLECULE": "O=C(C[C@H]1CC[C@@H]2[C@H](COC[C@H](O)CN2S(=O)(=O)c2ccccc2)O1)N1CCOCC1", "activity change, negative = inhibition": "7.87% (inactive)"}
{"MOLECULE": "CN1C(=O)c2cc(NC(=O)c3ccc(F)cc3)ccc2OC[C@H]2O[C@H](CC(=O)N3CCOCC3)CC[C@@H]21", "activity change, negative = inhibition": "1.69% (inactive)"}
{"MOLECULE": "COc1ccccc1NC(=O)N1[C@@H]2CNC[C@H]1C2c1ccc(-c2ccccc2C)cc1 (some centres undefined)", "activity change, negative = inhibition": "17.2% (inactive)"}
{"MOLECULE": "COc1ccc(NC(=O)N(C)C[C@@H]2OCc3cn(nn3)CCCC(=O)N([C@H](C)CO)C[C@H]2C)c(OC)c1", "activity change, negative = inhibition": "-6.81% (inactive)"}
{"MOLECULE": "C[C@@H](NC(=O)[C@@H]1[C@@H](CO)[C@@H]2Cn3c(ccc(C4=CCCCC4)c3=O)[C@@H]2N1C)c1ccccc1", "activity change, negative = inhibition": "3.54% (inactive)"}
{"MOLECULE": "C[C@@H]1CN([C@H](C)CO)S(=O)(=O)c2ccc(C#CC3CCCC3)cc2O[C@@H]1CN(C)Cc1ccccc1C(=O)O", "activity change, negative = inhibition": "-1.04% (inactive)"}
{"MOLECULE": "CCCNC(=O)C[C@H]1CC[C@H]2[C@@H](COc3ccc(NC(=O)Nc4c(C)noc4C)cc3C(=O)N2C)O1", "activity change, negative = inhibition": "1.35% (inactive)"}
{"MOLECULE": "CC(C)CN(C[C@@H]1N[C@@H](CO)[C@H]1c1ccccc1)C(=O)CN(C)C", "activity change, negative = inhibition": "0.487% (inactive)"}
{"MOLECULE": "CCCNC(=O)N1C[C@@H](O)COC[C@H]2O[C@@H](CC(=O)NCCCN3CCOCC3)CC[C@@H]21", "activity change, negative = inhibition": "-2.3% (inactive)"}

---

assay: DUX4 transcriptional activity inhibition in cells – 293T cells, Gaussia and Italica luciferase, primary screen (AID 1224904); settings: 293T-iDUX4 ZSCAN4-Gaussia luciferase reporter, 24 h; measured here: selective DUX4 reporter inhibition; stronger effect = lower value; concentration not given here
Out of some 37,000 compounds screened, about 290 (0.78%) were called active. Another 10% or so got no clear call; they are omitted. The list comes from a sample in which actives are over-represented; it also holds close analogues and randomly drawn compounds.

{"SMILES RECORD": "COc1ccccc1S(=O)(=O)N1CC[C@H]2[C@@H](CO)N(C)c3ccc(C#Cc4ccccc4)cc3[C@H]21", "Gaussia minus Italica difference": "-4.03%"}
{"SMILES RECORD": "CCC(=O)N1CC2(C1)[C@@H](c1ccc(C3=CCCC3)cc1)[C@@H](CO)N2C(=O)COC", "Gaussia minus Italica difference": "-0.983%"}
{"SMILES RECORD": "COc1ccc(S(=O)(=O)Nc2ccc3c(c2)C(=O)N([C@@H](C)CO)C[C@@H](C)[C@H](CN(C)C(=O)CCC(F)(F)F)OCCCC[C@H](C)O3)cc1", "Gaussia minus Italica difference": "-2.09%"}
{"SMILES RECORD": "CC(C)NC(=O)N1[C@H](CO)[C@@H]2c3ccccc3N(C(=O)Nc3cccc(Cl)c3)C[C@@H]21", "Gaussia minus Italica difference": "3.13%"}
